# target system: UniProt:P37231
# Sequence (P37231 1-505): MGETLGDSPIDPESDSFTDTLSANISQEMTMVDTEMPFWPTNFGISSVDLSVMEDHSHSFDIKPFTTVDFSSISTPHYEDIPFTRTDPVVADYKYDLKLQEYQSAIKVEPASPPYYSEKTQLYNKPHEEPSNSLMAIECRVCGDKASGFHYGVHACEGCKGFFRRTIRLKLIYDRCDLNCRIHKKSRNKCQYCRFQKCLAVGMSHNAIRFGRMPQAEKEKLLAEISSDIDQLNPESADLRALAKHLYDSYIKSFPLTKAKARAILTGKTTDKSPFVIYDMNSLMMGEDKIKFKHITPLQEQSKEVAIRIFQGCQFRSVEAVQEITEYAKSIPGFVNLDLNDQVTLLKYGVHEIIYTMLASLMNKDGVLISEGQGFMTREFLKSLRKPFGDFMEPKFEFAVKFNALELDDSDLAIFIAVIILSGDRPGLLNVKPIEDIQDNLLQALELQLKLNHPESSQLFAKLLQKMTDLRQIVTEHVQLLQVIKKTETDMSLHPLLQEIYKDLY
# assay method text: LanthaScreen TR-FRET competitive binding assay
measurement type: IC50 (µM)

I: COc1cc(CC/C(C)=N\O)ccc1OCC(=O)Nc1ccc(F)cc1 [G1]
II: COc1cc(CC/C(C)=N\O)ccc1OCC(=O)Nc1nccs1 [G2]
Problem: Looking only at measured IC50, which entry is lower, I or II ? Identify your selection by its label.
Result: I
(I: 2.25 µM, II: 4.51 µM)
